pKi: −log10 of the molar value.
Kindly find below pKi information for Vascular endothelial growth factor receptor 2 (Homo sapiens, UniProt P35968) taken from the literature.
metricName: pKi

1. CN(C)Cc1ccnc(-c2cnc3[nH]cc(-c4oncc4-c4cccc(F)c4F)c3c2)c1    > 6.70
2. Cn1cc(Nc2ncc(C(F)(F)F)c(N[C@@H]3CCC[C@@H]3C(N)=O)n2)cn1.Cn1cc(Nc2ncc(C(F)(F)F)c(N[C@H]3CCC[C@H]3C(N)=O)n2)cn1 (mixture of isomers)    6.00 to 7.00
3. Fc1cccc(-c2cnoc2-c2c[nH]c3ncc(-c4cccnc4)cc23)c1F    6.00 to 6.70
4. CS(=O)(=O)Nc1ccc(-c2cnc3[nH]cc(-c4oncc4-c4cccc(F)c4F)c3c2)cc1    > 6.70
5. CCOC(=O)[C@@H]1[C@H](Nc2nc(Nc3cnn(C)c3)ncc2F)[C@H]2C=C[C@@H]1C2.CCOC(=O)[C@H]1[C@@H](Nc2nc(Nc3cnn(C)c3)ncc2F)[C@@H]2C=C[C@H]1C2 (mixture of isomers)    < 5.30
6. NC1CC=C(c2cnc3[nH]cc(-c4oncc4-c4cccc(F)c4F)c3c2)CC1 (stereo not shown)    > 6.70
7. NC(=O)[C@@H]1[C@H](Nc2nc(Nc3cnn(Cc4ccc(Cl)cc4)c3)ncc2Cl)[C@H]2C=C[C@@H]1C2    > 7.00
8. CCn1cc(Nc2ncc(Br)c(N[C@@H]3[C@H](C(N)=O)[C@H]4C=C[C@@H]3C4)n2)cn1.CCn1cc(Nc2ncc(Br)c(N[C@H]3[C@@H](C(N)=O)[C@@H]4C=C[C@H]3C4)n2)cn1 (mixture of isomers)    > 7.00
9. CN(C)c1ccc(-c2cnc3[nH]cc(-c4oncc4-c4cccc(F)c4F)c3c2)cc1    > 6.70
10. CN1CCN(CCn2cc(Nc3ncc(Cl)c(N[C@H]4[C@@H](C(N)=O)[C@@H]5C=C[C@H]4C5)n3)cn2)CC1    > 7.00
11. COc1cc(NC(=O)c2cccc3c2CCN(Cc2ccnc4ccccc24)C3)cc(OC)c1    7.37
12. Cc1nn(C)cc1Nc1ncc(Br)c(N[C@H]2[C@@H](C(N)=O)[C@@H]3C=C[C@H]2C3)n1    > 7.00
13. CC(C)(C)c1ccc(NC(=O)c2cccc3c2CCN(Cc2ccncc2)C3)cc1    6.48
14. Fc1cccc(-c2cnoc2-c2n[nH]c3ncc(Br)cc23)c1F    6.00 to 6.70
15. Fc1cccc(-c2cnoc2-c2c[nH]c3ncc(/C=C/n4cncn4)cc23)c1F    > 6.70
16. CS(=O)(=O)CCn1cc(Nc2ncc(Cl)c(N[C@H]3[C@@H](C(N)=O)[C@@H]4C=C[C@H]3C4)n2)cn1    > 7.00
17. NC(=O)[C@@H]1[C@H](Nc2nc(Nc3cnn([C@@H]4CCNC4)c3)ncc2Cl)[C@H]2C=C[C@@H]1C2    > 7.00
18. CC(=O)NCC(=O)N1CCC(n2cc(Nc3ncc(Cl)c(N[C@H]4[C@@H](C(N)=O)[C@@H]5C=C[C@H]4C5)n3)cn2)CC1    > 7.00
19. CCn1cc(Nc2ncc(C(F)(F)F)c(N[C@@H]3[C@H](C(=O)NCCO)[C@H]4C=C[C@@H]3C4)n2)cn1.CCn1cc(Nc2ncc(C(F)(F)F)c(N[C@H]3[C@@H](C(=O)NCCO)[C@@H]4C=C[C@H]3C4)n2)cn1 (mixture of isomers)    > 7.00
20. Fc1cccc(-c2cnoc2-c2c[nH]c3ncc(C4=CCC(N5CCOCC5)CC4)cc23)c1F (stereo not shown)    6.00 to 6.70
21. CN(C)CCn1cc(Nc2ncc(Cl)c(N[C@@H]3[C@H](C(N)=O)[C@H]4C=C[C@@H]3C4)n2)cn1.CN(C)CCn1cc(Nc2ncc(Cl)c(N[C@H]3[C@@H](C(N)=O)[C@@H]4C=C[C@H]3C4)n2)cn1 (mixture of isomers)    > 7.00
22. NC(=O)[C@@H]1[C@H](Nc2nc(Nc3cnn([C@@H]4CCCNC4)c3)ncc2Cl)[C@H]2C=C[C@@H]1C2    > 7.00
23. CS(=O)(=O)CCn1cc(Nc2ncc(Br)c(N[C@H]3[C@@H](C(N)=O)[C@@H]4C=C[C@H]3C4)n2)cn1    > 7.00
24. CNC(=O)[C@@H]1[C@H](Nc2nc(Nc3cnn(C)c3)ncc2Br)[C@H]2C=C[C@@H]1C2.CNC(=O)[C@H]1[C@@H](Nc2nc(Nc3cnn(C)c3)ncc2Br)[C@@H]2C=C[C@H]1C2 (mixture of isomers)    > 7.00
25. O=C(c1nc(-c2oncc2-c2cccc(F)c2F)c[nH]1)N1CC=CC1    > 5.30

---

pKi: −log10 of the molar value.
Kindly find below pKi information for Vascular endothelial growth factor receptor 2 (Homo sapiens, UniProt P35968) taken from the literature.
metricName: pKi

1) CC(=O)N1CC(C)(C)c2ccc(NC(=O)c3cccc4c3CCN(Cc3ccnc5ccccc35)C4)cc21    8.27
2) Cn1cc(Nc2ncc([N+](=O)[O-])c(N[C@H]3[C@@H](C(N)=O)[C@@H]4C=C[C@H]3C4)n2)cn1    > 7.00
3) Cn1cc(Nc2ncc(Br)c(N[C@H]3[C@@H](C(N)=O)C[C@H]4C[C@@H]3C4(C)C)n2)cn1    > 7.00
4) C[C@@H](O)Cn1cc(Nc2ncc(Cl)c(N[C@@H]3[C@H]4CC[C@H](C4)[C@@H]3C(N)=O)n2)cn1    > 7.00
5) CN(C)c1ccnc2[nH]cc(-c3oncc3-c3cccc(F)c3F)c12    6.00 to 6.70
6) CCNC(=O)Nc1ccc(Nc2ncn(-c3ccnc(N4C[C@@H](C)N(C(C)=O)[C@@H](C)C4)c3)n2)cc1    > 7.00
7) Fc1cccc(-c2cnoc2-c2c[nH]c3ncc(-c4cnc5[nH]ccc5c4)cc23)c1F    > 6.70

---

Kindly find below pKi information for Vascular endothelial growth factor receptor 2 (Homo sapiens, UniProt P35968) taken from the literature.
pKi: −log10 of the molar value.
metricName: pKi

1) CCn1cc(Nc2ncc(C(F)(F)F)c(N[C@@H]3[C@H]4CC[C@H](C4)[C@@H]3C(N)=O)n2)cn1    > 7.00
2) CCn1cc(Nc2ncc(Cl)c(N[C@@H]3[C@H](C(=O)NC)[C@H]4C=C[C@@H]3C4)n2)cn1.CCn1cc(Nc2ncc(Cl)c(N[C@H]3[C@@H](C(=O)NC)[C@@H]4C=C[C@H]3C4)n2)cn1 (mixture of isomers)    > 7.00
3) NC(=O)c1ccc(-c2cnc3[nH]cc(-c4oncc4-c4cccc(F)c4F)c3c2)cc1    6.00 to 6.70
4) c1ccc(Nc2ncn(-c3ccnc(N4CCCCC4)c3)n2)cc1    > 7.00
5) Cc1noc(-c2c[nH]c3ncccc23)c1-c1cccc(F)c1F    4.90 to 6.00
6) CCn1cc(Nc2ncc(Br)c(N[C@H]3[C@@H](C(N)=O)[C@@H]4C=C[C@H]3C4)n2)cn1    > 7.00
7) NC(=O)[C@@H]1[C@H](Nc2nc(Nc3cnn(C4CCC4)c3)ncc2Br)[C@H]2C=C[C@@H]1C2    > 7.00
8) NC(=O)[C@@H]1[C@H](Nc2nc(Nc3cnn(CCc4ccccc4)c3)ncc2Cl)[C@H]2C=C[C@@H]1C2    > 7.00
9) NC(=O)[C@@H]1[C@H](Nc2nc(Nc3cnn(CC(F)(F)F)c3)ncc2C(F)(F)F)[C@H]2C=C[C@@H]1C2 (racemic)    > 7.00
10) Cc1cccc(NC(=O)c2cccc3c2CCN(Cc2ccnc4ccccc24)C3)c1    6.98
11) O=C(c1cnc2[nH]cc(-c3oncc3-c3cccc(F)c3F)c2c1)N1CCCC1    6.00 to 6.70
12) CC(C)(C)CC(=O)Nc1cc(-n2cnc(Nc3ccccc3)n2)ccn1    6.00 to 7.00
13) Clc1cccc(-c2cnoc2-c2c[nH]c3ncccc23)c1Cl    6.00 to 6.70
14) COc1ccc2nc(C)cc(-c3cnc4cc(-c5ccc(N6CCN(C(C)=O)CC6)cc5)ccn34)c2c1    5.06
15) CNc1ccc2c(-c3oncc3-c3cccc(F)c3F)c[nH]c2n1    4.90 to 6.00

---

pKi: −log10 of the molar value.
Kindly find below pKi information for Vascular endothelial growth factor receptor 2 (Homo sapiens, UniProt P35968) taken from the literature.
metricName: pKi

1. CC(=O)Nc1ccc(-c2cnc3[nH]cc(-c4oncc4-c4cccc(F)c4F)c3c2)cc1    6.00 to 6.70
2. Fc1cccc(-c2cnoc2-c2c[nH]c3ncc(-c4cncnc4)cc23)c1F    4.90 to 6.00
3. CCOC(=O)c1ccc(Nc2ncn(-c3ccnc(N4C[C@@H](C)N(C(C)=O)[C@@H](C)C4)c3)n2)cc1    > 7.00
4. COc1cccc(Cn2cc(Nc3ncc(Cl)c(N[C@H]4[C@@H](C(N)=O)[C@@H]5C=C[C@H]4C5)n3)cn2)c1    > 7.00
5. NC(=O)[C@@H]1[C@H](Nc2nc(Nc3cnn(CCN4CCCC4)c3)ncc2Cl)[C@H]2C=C[C@@H]1C2 (racemic)    > 7.00
6. NC(=O)[C@@H]1[C@H](Nc2nc(Nc3cnn(Cc4ccc5ccccc5c4)c3)ncc2Cl)[C@H]2C=C[C@@H]1C2    > 7.00
7. Cn1cc(Nc2ncc(C(F)(F)F)c(Nc3ccccc3C3(O)CCC3)n2)cn1    > 7.00
8. NC(=O)[C@@H]1[C@H](Nc2nc(Nc3cn[nH]c3)ncc2F)[C@H]2C=C[C@@H]1C2.NC(=O)[C@H]1[C@@H](Nc2nc(Nc3cn[nH]c3)ncc2F)[C@@H]2C=C[C@H]1C2 (mixture of isomers)    6.00 to 7.00
9. O=C(CCc1ccccc1)Nc1cc(-n2cnc(Nc3ccccc3)n2)ccn1    6.00 to 7.00
10. CN(C)C(=O)Cn1cc(Nc2ncc(Cl)c(N[C@@H]3[C@H]4CC[C@H](C4)[C@@H]3C(N)=O)n2)cn1.CN(C)C(=O)Cn1cc(Nc2ncc(Cl)c(N[C@H]3[C@@H]4CC[C@@H](C4)[C@H]3C(N)=O)n2)cn1 (mixture of isomers)    > 7.00
11. CS(=O)(=O)NC1CC=C(c2cnc3[nH]cc(-c4oncc4-c4cccc(F)c4F)c3c2)CC1 (stereo not shown)    > 6.70
12. Oc1cccc(-c2cnc3[nH]cc(-c4oncc4-c4cccc(F)c4F)c3c2)c1    6.00 to 6.70
13. COc1cnc(Nc2cnn(C)c2)nc1NC1C2C=CC(C2)C1C(N)=O (mixture of isomers)    > 7.00
